Tgt: Sigma 2 receptor
Measurement description: Binding affinity was evaluated against sigma-2 binding site in rat liver using [3H]DTG -(+)-Dextrallorphan as radioligand

Mol: CN(CCc1ccc(Cl)c(Cl)c1)CCN1CCCC1
Unit descriptor: nM
Ki: 8.1
--
Mol: CN(CCN1CCCC1)Cc1cccc(Br)c1
Unit descriptor: nM
Ki: 220
--
Mol: CN(CCN1CCCC1)Cc1cccc(I)c1
Unit descriptor: nM
Ki: 33.7
--
Mol: CN(CCc1cccc(F)c1)CCN1CCCC1
Unit descriptor: nM
Ki: 104
--
Mol: CN(CCc1cccc(I)c1)CCN1CCCC1
Unit descriptor: nM
Ki: 9.1
--
Mol: CN(CCN1CCCC1)Cc1ccc(I)cc1
Unit descriptor: nM
Ki: 24.5
--
Mol: CN(CCc1ccc(Cl)cc1)CCN1CCCC1
Unit descriptor: nM
Ki: 50.5
--
Mol: CN(CCc1ccc(I)cc1)CCN1CCCC1
Unit descriptor: nM
Ki: 43.1
--
Mol: CN(CCc1cccc(Cl)c1)CCN1CCCC1
Unit descriptor: nM
Ki: 28.3
--
Mol: CN(CCN1CCCC1)Cc1ccccc1I
Unit descriptor: nM
Ki: 48.2
--
Mol: CN(CCc1cccc(Br)c1)CCN1CCCC1
Unit descriptor: nM
Ki: 59.8
--
Mol: CN(CCc1ccc(Br)cc1)CCN1CCCC1
Unit descriptor: nM
Ki: 32.5
--
Mol: CN(CCc1ccc(F)cc1)CCN1CCCC1
Unit descriptor: nM
Ki: 124
